test_system: Fyn (UniProt P06241)
Sequence (P06241 whole entry, looked up): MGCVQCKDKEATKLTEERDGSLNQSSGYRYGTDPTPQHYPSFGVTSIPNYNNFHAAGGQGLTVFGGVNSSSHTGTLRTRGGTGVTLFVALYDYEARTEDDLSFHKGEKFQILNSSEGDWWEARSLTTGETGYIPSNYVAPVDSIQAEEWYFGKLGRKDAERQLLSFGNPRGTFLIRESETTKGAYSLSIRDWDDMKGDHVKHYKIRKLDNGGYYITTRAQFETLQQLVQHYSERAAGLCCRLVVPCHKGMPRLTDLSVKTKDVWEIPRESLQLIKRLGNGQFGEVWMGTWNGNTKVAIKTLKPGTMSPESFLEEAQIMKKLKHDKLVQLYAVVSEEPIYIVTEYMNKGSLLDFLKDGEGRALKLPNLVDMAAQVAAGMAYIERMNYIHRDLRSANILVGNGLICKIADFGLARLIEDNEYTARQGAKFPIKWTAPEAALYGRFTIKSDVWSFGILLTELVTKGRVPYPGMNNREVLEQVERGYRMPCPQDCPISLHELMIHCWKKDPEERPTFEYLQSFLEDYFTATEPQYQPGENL
experimental_details: phosphorylation enrichment, bacterial display (enrichment ratio); higher = better substrate or ligand; peptides without Tyr show the background;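 further: 11-residue human phosphosite peptides and single-mutation variants displayed on the E. coli surface, counted by deep sequencing, each peptide's frequency after selection divided by its frequency in the unselected input library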;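 further: frequency after pTyr selection over input frequency; kinase dosed for 20-30% of maximal phosphorylation in three min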
Decide by phosphorylation enrichment: equal to or exceeding 0.6 means true, less means false.

Previously resolved entries follow.
>  <chain_sequence>
CVRTIYTIDGS [DCLK2_Y124_G119C]

>  <test_system>
Fyn (UniProt P06241)

>  <cat>
true

$$$$
>  <chain_sequence>
ADNSAYLMGLN [MYH7_Y386_K383N]

>  <test_system>
Fyn (UniProt P06241)

>  <cat>
false

$$$$

Q. Hi, just wondering whether NCFKYYMSDDI [ATRX_Y204] shows phosphorylation enrichment of 0.6 or higher.
A. false

Q. Another sequence: QKTGDYFDLFG [PTPN11_Y62_N58K_YF]
A. true

Q. Another sequence: YAREGYSALPQ [SARS2_Y52]
A. false

Q. Another sequence: QKTGDYYDLYG [PTPN11_Y62_N58K]
A. true

Q. Another sequence: GGQVFHNSEYG [FLT4_Y1333_Y1333H]
A. false

Q. Another sequence: GGMTEYKLVVV [KRAS_Y4]
A. false

Q. Another sequence: TVMGLYQKSSL [MYH7_Y609_V606M]
A. false

Q. Another sequence: LSNPAYRLLLA [DDR1_Y513]
A. true

Q. Another sequence: EPVSDYINASI [PTPN11_Y304_N308S]
A. false

Q. Another sequence: YRRITYHNWRH [PDE6B_Y556]
A. false

Q. Another sequence: DRLASYLDKMR [KRT17_Y98_V102M]
A. true

Q. Another sequence: SECCKYKIDNL [OSMR_Y689_P694L]
A. false

Q. Another sequence: QQIFTYDSGIH [JUP_Y22_T19I_YF]
A. true

Q. Another sequence: SSAAGYACLAF [MVD_Y131_YF]
A. false

Q. Another sequence: VDTGVYAVPPP [BCAR1_Y410_S407T]
A. true

Q. Another sequence: ILNANCMAKRL [GLDC_Y839_Y839C]
A. false

Q. Another sequence: LKDEDYLKDTV [HAUS3_Y582_I586T]
A. true

Q. Another sequence: EQKKYYNATKK [SCN5A_Y1495_M1498T]
A. false

Q. Another sequence: LLVVLYKYRCF [PSEN1_Y154_Y159F]
A. true
